- System: HLA-B15
- measurementNotes: REVEAL binding assay
- settings: score as percentage of the signal generated by the positive control peptide
endpointLabel: REVEAL binding score, HLA-type B15 (%)
The response must be a number in % with no trailing unit.

Known results for substances:
YLPAVGAPI :: 49.63
GPRLGVRAT :: 10.01
VARALAHGV :: 11.26
YATGNLPGC :: 5.09
IPLVGAPLG :: 10.01
RVIETLTSG :: 37.99
NLPGCSFSI :: 3.11
ARALAHGVR :: 13.58

Entry under review: VIDTLTCGF . Reported REVEAL binding score, HLA-type B15?
9.49

Entry under review: GGQIIGGNY . Reported REVEAL binding score, HLA-type B15?
90.62

Entry under review: VGGVYLLPR . Reported REVEAL binding score, HLA-type B15?
13.22

Entry under review: GYLPAVGAP . Reported REVEAL binding score, HLA-type B15?
10.50

Entry under review: TFSIYLIVS . Reported REVEAL binding score, HLA-type B15?
8.63

Entry under review: RALAHGVRV . Reported REVEAL binding score, HLA-type B15?
11.84

Entry under review: ADLMGYIPL . Reported REVEAL binding score, HLA-type B15?
8.30

Source: patent US9550811B2
